- System: 186277-243-T-J2-PDC complex spheroid viability
- EXPERIMENTAL_DETAILS: Anticancer human tumor 186277-243-T-J2-PDC patient-derived colon adenocarcinoma cell line growth inhibition [GQUAD]
- CONDITIONS: second compound 0.316 µM; first compound 10 µM; stronger effect = lower value
- Source text: DNA G-quadruplex Stabilizer Agents in Combinations in Complex Spheroids A high-throughput screen of multi-cell type tumor spheroids was designed to identify active combinations of DNA G-quadruplex stabilizer agents and targeted small molecules. […] Compounds. […] If the clinical Cmax for an agent had not been determined, the highest concentration tested was 10 microM. […]
ASSAY_METRIC: viability, T/C (%)
Just the number please, in %, no unit attached.

Below: 8 compounds and their reported viability, T/C.
# COMPOUND, TESTED_ON, viability, T/C, %
measured = [
    ("Cc1cccc(N(C)C(=O)C2C(O)CCN2c2nc(C)cc(C(F)(F)F)c2C#N)c1 (stereo unspecified) + CN(C)c1ccc(Nc2c3ccc(NC(=O)CCN4CCCC4)cc3nc3cc(NC(=O)CCN4CCCC4)ccc23)cc1", "186277-243-T-J2-PDC complex spheroid viability", 104),
    ("C=CC(=O)N1CCN(c2nc(=O)n(-c3c(C)ccnc3C(C)C)c3nc(-c4c(O)cccc4F)c(F)cc23)C(C)C1 (stereo unspecified) + Cc1cnc(CNC(=O)c2c(=O)c3ccc(N4CCCN(C)CC4)nc3n3c2sc2ccccc23)cn1", "186277-243-T-J2-PDC complex spheroid viability", 66.4),
    ("CC(C)(O)C1CCC(Nc2ccc3ncc(-c4cccc(C(F)(F)F)c4)n3n2)CC1 (stereo unspecified) + CN(C)c1ccc(Nc2c3ccc(NC(=O)CCN4CCCC4)cc3nc3cc(NC(=O)CCN4CCCC4)ccc23)cc1", "186277-243-T-J2-PDC complex spheroid viability", 36),
    ("CC1COCCN1c1cc(C2(S(C)(=N)=O)CC2)nc(-c2ccnc3[nH]ccc23)n1 (stereo unspecified) + Cc1cnc(CNC(=O)c2c(=O)c3ccc(N4CCCN(C)CC4)nc3n3c2sc2ccccc23)cn1", "186277-243-T-J2-PDC complex spheroid viability", 17),
    ("COc1ncnc(C2CC2)c1-c1ncc2cnn(Cc3ccc(-c4nc(C(F)(F)F)cn4C(C)C)cc3)c2n1 + CN(C)c1ccc(Nc2c3ccc(NC(=O)CCN4CCCC4)cc3nc3cc(NC(=O)CCN4CCCC4)ccc23)cc1", "186277-243-T-J2-PDC complex spheroid viability", 85.6),
    ("CC(C)n1c(=O)n(C)c2cnc3cc(F)c(-c4ccc(OCCCN5CCCCC5)nc4)cc3c21 + Cc1[nH]c2ccc(F)cc2c1-c1nc2c3cccnc3c3ncccc3c2[nH]1", "186277-243-T-J2-PDC complex spheroid viability", 98.5),
    ("O=c1[nH]cc(F)c(=O)[nH]1 + Cc1[nH]c2ccc(F)cc2c1-c1nc2c3cccnc3c3ncccc3c2[nH]1", "186277-243-T-J2-PDC complex spheroid viability", 45.1),
    ("CC1COCCN1c1cc(-c2ccnn2C)c2ccnc(-c3ccn[nH]3)c2n1 (stereo unspecified) + CN(C)c1ccc(Nc2c3ccc(NC(=O)CCN4CCCC4)cc3nc3cc(NC(=O)CCN4CCCC4)ccc23)cc1", "186277-243-T-J2-PDC complex spheroid viability", 5.43),
]

Lookup: // Input: O=C(NO)c1cnc(N2CCN(S(=O)(=O)c3ccc4ccccc4c3)CC2)nc1 + Cc1[nH]c2ccc(F)cc2c1-c1nc2c3cccnc3c3ncccc3c2[nH]1 . Output its viability, T/C only.
Found: 0.11

Lookup: // Input: CC1COCCN1c1cc(C2(O)CC3CCC(C2)O3)c2cnn(-c3ccn[nH]3)c2n1 (stereo unspecified) + Cc1[nH]c2ccc(F)cc2c1-c1nc2c3cccnc3c3ncccc3c2[nH]1 . Output its viability, T/C only.
Found: 4.58

Lookup: // Input: O=c1[nH]cc(F)c(=O)[nH]1 + CN(C)c1ccc(Nc2c3ccc(NC(=O)CCN4CCCC4)cc3nc3cc(NC(=O)CCN4CCCC4)ccc23)cc1 . Output its viability, T/C only.
Found: 51.1

----------
- System: 186277-243-T-J2-PDC complex spheroid viability
- EXPERIMENTAL_DETAILS: Anticancer human tumor 186277-243-T-J2-PDC cell line growth inhibition [GQUAD];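 note: spheroids exposed to drugs for 7 days; 100% = DMSO vehicle control viability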
- CONDITIONS: second compound 0.316 µM; first compound 0.0316 µM; stronger effect = lower value
Measured viability, T/C accompanies every entry in the list below.
Just the number please, in %, no unit attached.

# MOLECULE, ASSAY_METRIC, REPORTED_VALUE
rows = [
    ("Cc1cccc(N(C)C(=O)C2C(O)CCN2c2nc(C)cc(C(F)(F)F)c2C#N)c1 (stereo not given) + Cc1[nH]c2ccc(F)cc2c1-c1nc2c3cccnc3c3ncccc3c2[nH]1", "viability, T/C", 92.6),
]

Lookup: Specify viability, T/C for CC(C)n1c(=O)n(C)c2cnc3cc(F)c(-c4ccc(OCCCN5CCCCC5)nc4)cc3c21 + CN(C)c1ccc(Nc2c3ccc(NC(=O)CCN4CCCC4)cc3nc3cc(NC(=O)CCN4CCCC4)ccc23)cc1 , system 186277-243-T-J2-PDC complex spheroid viability.
Found: 97.9

Lookup: Specify viability, T/C for COc1cccc2c1C(=O)c1c(O)c3c(c(O)c1C2=O)CC(O)(C(=O)CO)CC3OC1CC(N)C(O)C(C)O1 (stereo not given) + Cc1cnc(CNC(=O)c2c(=O)c3ccc(N4CCCN(C)CC4)nc3n3c2sc2ccccc23)cn1 , system 186277-243-T-J2-PDC complex spheroid viability.
Found: 59.4

Lookup: Specify viability, T/C for COc1cccc2c1C(=O)c1c(O)c3c(c(O)c1C2=O)CC(O)(C(=O)CO)CC3OC1CC(N)C(O)C(C)O1 (stereo not given) + CN(C)c1ccc(Nc2c3ccc(NC(=O)CCN4CCCC4)cc3nc3cc(NC(=O)CCN4CCCC4)ccc23)cc1 , system 186277-243-T-J2-PDC complex spheroid viability.
Found: 107

Lookup: Specify viability, T/C for COc1cc(C2c3cc4c(cc3C(OC3OC5COC(C)OC5C(O)C3O)C3COC(=O)C23)OCO4)cc(OC)c1O (stereo not given) + Cc1cnc(CNC(=O)c2c(=O)c3ccc(N4CCCN(C)CC4)nc3n3c2sc2ccccc23)cn1 , system 186277-243-T-J2-PDC complex spheroid viability.
Found: 80.8

----------
Measured viability, T/C accompanies every entry in the list below.
- Test system: 186277-243-T-J2-PDC complex spheroid viability
- EXPERIMENTAL_DETAILS: Anticancer human tumor 186277-243-T-J2-PDC cell line growth inhibition [GQUAD];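 note: spheroids exposed to drugs for 7 days; 100% = DMSO vehicle control viability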
- CONDITIONS: second compound 0.0316 µM; first compound 0.000999 µM; stronger effect = lower value
- Source text: DNA G-quadruplex Stabilizer Agents in Combinations in Complex Spheroids A high-throughput screen of multi-cell type tumor spheroids was designed to identify active combinations of DNA G-quadruplex stabilizer agents and targeted small molecules. […] Compounds. […] If the clinical Cmax for an agent had not been determined, the highest concentration tested was 10 microM. […]
Just the number please, in %, no unit attached.

# COMPOUND, viability, T/C (%)
data = [
    ("CCc1c2c(nc3ccc(O)cc13)-c1cc3c(c(=O)n1C2)COC(=O)[C@]3(O)CC + Cc1cnc(CNC(=O)c2c(=O)c3ccc(N4CCCN(C)CC4)nc3n3c2sc2ccccc23)cn1", 90.8),
]

Lookup: // Input: CC[C@@]1(O)C(=O)OCc2c1cc1n(c2=O)Cc2cc3c(CN(C)C)c(O)ccc3nc2-1 + Cc1cnc(CNC(=O)c2c(=O)c3ccc(N4CCCN(C)CC4)nc3n3c2sc2ccccc23)cn1 . Output its viability, T/C only.
Found: 95.2

Lookup: // Input: Cc1[nH]c2ccccc2c1CCNCc1ccc(/C=C/C(=O)NO)cc1 + Cc1cnc(CNC(=O)c2c(=O)c3ccc(N4CCCN(C)CC4)nc3n3c2sc2ccccc23)cn1 . Output its viability, T/C only.
Found: 108

Lookup: // Input: Cn1ncnc1[C@H]1c2n[nH]c(=O)c3cc(F)cc(c23)N[C@@H]1c1ccc(F)cc1 + CN(C)c1ccc(Nc2c3ccc(NC(=O)CCN4CCCC4)cc3nc3cc(NC(=O)CCN4CCCC4)ccc23)cc1 . Output its viability, T/C only.
Found: 91.8

Lookup: // Input: CC[C@@]1(O)C(=O)OCc2c1cc1n(c2=O)Cc2cc3c(CN(C)C)c(O)ccc3nc2-1 + CN(C)c1ccc(Nc2c3ccc(NC(=O)CCN4CCCC4)cc3nc3cc(NC(=O)CCN4CCCC4)ccc23)cc1 . Output its viability, T/C only.
Found: 91.1

Lookup: // Input: CC[C@@]1(O)C(=O)OCc2c1cc1n(c2=O)Cc2cc3c(CN(C)C)c(O)ccc3nc2-1 + Cc1[nH]c2ccc(F)cc2c1-c1nc2c3cccnc3c3ncccc3c2[nH]1 . Output its viability, T/C only.
Found: 97
